B1: MGC16075 (parent)
chain: AGSRQALSFEVPPCNYDPEKWIQ

Variants of: B1
METHOD_DESCRIPTION: protein stability index of a GFP-peptide fusion (GPS, HEK-293T) (PSI 1-6); higher = more stable;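 note: lentivirally expressed fusions sorted by FACS into six bins by GFP to DsRed ratio, PSI derived from sequencing read proportions per bin multiplied by bin number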
TEST_PARAMETERS: c terminus: native

| SEQUENCE_CODE | protein stability index |
| --- | --- |
| AGSRQALSFEVPPMNYDPEKWIQ [C14M] | 1.23 |
| AGSRQALSFAVPPCNYDPEKWIQ [E10A] | 3.25 |
| AGSRQALSFEVPPCNYDPEKMIQ [W21M] | 3.23 |
| AGSRQAWSFEVPPCNYDPEKWIQ [L7W] | 2.77 |
| AGSRQALSFEVPPCNYGPEKWIQ [D17G] | 2.29 |
| AGSRSALSFEVPPCNYDPEKWIQ [Q5S] | 1.48 |
| AGSRQALSFEVPPCTYDPEKWIQ [N15T] | 1.64 |
| AGSRQALSFEVPPQNYDPEKWIQ [C14Q] | 2.05 |
| AGSIQALSFEVPPCNYDPEKWIQ [R4I] | 2.7 |
| AGSRQASSFEVPPCNYDPEKWIQ [L7S] | 2.11 |
| AGSRQALSFEVPPCNYDPEGWIQ [K20G] | 3.9 |
| AGSRQALSGEVPPCNYDPEKWIQ [F9G] | 3.14 |
| MGSRQALSFEVPPCNYDPEKWIQ [A1M] | 1.25 |
| AGSRQILSFEVPPCNYDPEKWIQ [A6I] | 3.05 |
| AGSRQALSFEPPPCNYDPEKWIQ [V11P] | 1.75 |
| AGSRQALSFEVWPCNYDPEKWIQ [P12W] | 2.69 |
| AISRQALSFEVPPCNYDPEKWIQ [G2I] | 2.37 |
| AGSRQALSFEVPPCNYDEEKWIQ [P18E] | 2.79 |
| AGSRQALSFEVAPCNYDPEKWIQ [P12A] | 1.79 |
| AGSRQALSFEVPPVNYDPEKWIQ [C14V] | 1.95 |
| AGSRQALSFEVPRCNYDPEKWIQ [P13R] | 1.29 |
| AGSRQALSFEVPPCEYDPEKWIQ [N15E] | 1.58 |
| AGSRQALSFEVLPCNYDPEKWIQ [P12L] | 4.23 |
| AGSRQALSFEVPPCNPDPEKWIQ [Y16P] | 2.22 |
| AGSRQALSFEVPPCNCDPEKWIQ [Y16C] | 2.17 |
| AGSRQALSFEVPPCNYDPECWIQ [K20C] | 2.26 |
| AGSRQALSFEVPPCNYDPEKWIE [Q23E] | 1.97 |
| AGSTQALSFEVPPCNYDPEKWIQ [R4T] | 2.14 |
| AGSRQALSFEVPPCNQDPEKWIQ [Y16Q] | 2.54 |
| AGCRQALSFEVPPCNYDPEKWIQ [S3C] | 1.52 |
| AGSRQANSFEVPPCNYDPEKWIQ [L7N] | 2.72 |
| AGSRNALSFEVPPCNYDPEKWIQ [Q5N] | 1.82 |
| AYSRQALSFEVPPCNYDPEKWIQ [G2Y] | 2.51 |
| AGSRQALSFEVTPCNYDPEKWIQ [P12T] | 1.99 |
| IGSRQALSFEVPPCNYDPEKWIQ [A1I] | 1.9 |
| AGSRQALSFEVPPCNYDPEKWDQ [I22D] | 4.97 |
| AGRRQALSFEVPPCNYDPEKWIQ [S3R] | 1.57 |
| AGSRQALAFEVPPCNYDPEKWIQ [S8A] | 1.79 |
| AGSRQALSFEVKPCNYDPEKWIQ [P12K] | 1.73 |
| AGSRQALSFEVPPCNYDPEKNIQ [W21N] | 2.42 |
| AGSRQALSFEVPPNNYDPEKWIQ [C14N] | 1.92 |
| AGSRQALSFEVQPCNYDPEKWIQ [P12Q] | 2 |
| AGSRQAMSFEVPPCNYDPEKWIQ [L7M] | 1.86 |
| AGSRQALSFEVPDCNYDPEKWIQ [P13D] | 1.8 |
| AGSRQATSFEVPPCNYDPEKWIQ [L7T] | 2.42 |
| AGSRQAYSFEVPPCNYDPEKWIQ [L7Y] | 1.76 |
| AGSRQALIFEVPPCNYDPEKWIQ [S8I] | 1.59 |
| AGSRPALSFEVPPCNYDPEKWIQ [Q5P] | 1.47 |
| AGSRQAISFEVPPCNYDPEKWIQ [L7I] | 2.07 |
| AGSRQWLSFEVPPCNYDPEKWIQ [A6W] | 3.24 |
| EGSRQALSFEVPPCNYDPEKWIQ [A1E] | 2.19 |
| AGSRQALSFEVPVCNYDPEKWIQ [P13V] | 2.19 |
| AGSRQAGSFEVPPCNYDPEKWIQ [L7G] | 2.06 |
| AGSRQALSFKVPPCNYDPEKWIQ [E10K] | 1.67 |
| AGSRQALSFEVPPCNYTPEKWIQ [D17T] | 1.92 |
| AGSFQALSFEVPPCNYDPEKWIQ [R4F] | 2.41 |
| AGSRQALSFEVPPCNYDPEAWIQ [K20A] | 3.93 |
| AGLRQALSFEVPPCNYDPEKWIQ [S3L] | 1.93 |
| AGSRQALSFEVPPCNKDPEKWIQ [Y16K] | 1.61 |
| AGSRQALSFEVPPCNYDPEKWIN [Q23N] | 2.83 |
| AGSRQALSFEVPPENYDPEKWIQ [C14E] | 2.21 |
| AGSRQALSDEVPPCNYDPEKWIQ [F9D] | 3.05 |
| AGSRQALSFEVVPCNYDPEKWIQ [P12V] | 2.72 |
| AGSRQALSFEVPPCNTDPEKWIQ [Y16T] | 2.53 |
| AGSRQALSFEVPPCNYDPEKWIW [Q23W] | 1.24 |
| AGSRQALSFEVMPCNYDPEKWIQ [P12M] | 2.33 |
| AGSRQALSFEVPPCNYDPEKWIM [Q23M] | 1.82 |
| AGSRQALHFEVPPCNYDPEKWIQ [S8H] | 2.05 |
| AGSRQALSFEVPPCNYFPEKWIQ [D17F] | 1.57 |
| AGSRQALSFEVPPCSYDPEKWIQ [N15S] | 1.35 |
| ALSRQALSFEVPPCNYDPEKWIQ [G2L] | 2.27 |
| AGSRQRLSFEVPPCNYDPEKWIQ [A6R] | 2.29 |
| AGSRQALSFEVPPCNYDPEPWIQ [K20P] | 4.17 |
| AGSRQALSFEVPPTNYDPEKWIQ [C14T] | 2.2 |
| AGSRFALSFEVPPCNYDPEKWIQ [Q5F] | 3.99 |
| AGSRQALSFEVPPCNYCPEKWIQ [D17C] | 1.29 |
| AGSRQALSFEVPSCNYDPEKWIQ [P13S] | 2.66 |
| AGSRQALSFEVPPCNYDPEKLIQ [W21L] | 2.17 |
| AGSVQALSFEVPPCNYDPEKWIQ [R4V] | 2.61 |
| AGSRQALSFEVPPCNYNPEKWIQ [D17N] | 1.51 |
| AGSRQALSFEVPPCNYDPEKWFQ [I22F] | 4.43 |
| AHSRQALSFEVPPCNYDPEKWIQ [G2H] | 2.4 |
| AGSRQALSFEVPPCNMDPEKWIQ [Y16M] | 2.03 |
| AGSRQALSFEGPPCNYDPEKWIQ [V11G] | 1.63 |
| AGSRQALSFEVPPGNYDPEKWIQ [C14G] | 1.42 |
| AGSEQALSFEVPPCNYDPEKWIQ [R4E] | 1.83 |
| AGSRQALSFEVPPCNYDPEIWIQ [K20I] | 2.46 |
| AGSRQALSFEVPPCYYDPEKWIQ [N15Y] | 2.7 |
| AGSRQALSFEVPPCNYDPEKWTQ [I22T] | 4.85 |
| AGSRQALSFEVPPCKYDPEKWIQ [N15K] | 2.53 |
| LGSRQALSFEVPPCNYDPEKWIQ [A1L] | 1.22 |
